- target_entity: hCB1 (Homo sapiens, UniProt P21554)
- Sequence (P21554 whole entry): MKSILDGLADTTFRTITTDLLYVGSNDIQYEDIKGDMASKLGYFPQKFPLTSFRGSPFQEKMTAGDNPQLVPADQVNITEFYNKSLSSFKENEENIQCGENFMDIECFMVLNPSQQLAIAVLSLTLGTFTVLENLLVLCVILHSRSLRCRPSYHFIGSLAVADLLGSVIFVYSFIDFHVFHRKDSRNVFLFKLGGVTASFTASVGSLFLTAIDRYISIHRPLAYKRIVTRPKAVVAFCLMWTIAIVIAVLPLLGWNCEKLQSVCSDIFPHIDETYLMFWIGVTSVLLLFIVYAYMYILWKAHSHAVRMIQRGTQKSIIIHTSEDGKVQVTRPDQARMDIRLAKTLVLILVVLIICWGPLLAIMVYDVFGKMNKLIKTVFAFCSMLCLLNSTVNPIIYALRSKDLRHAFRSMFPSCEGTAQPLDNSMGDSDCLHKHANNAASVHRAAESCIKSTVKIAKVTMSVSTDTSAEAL
- assay_comment: bioSensAll ebBRET signaling profiling, hCB1
- Assay type: cell-based
- Parameters: host or cells: HEK293SL cells, transient PEI transfection
- measurement_context: hCB1 Gi1; normalized to CP-55,940
assay_metric: Emax [95% CI]

| molecule | assay_metric | result |
| --- | --- | --- |
| COC(=O)[C@@H]1[C@@H]2CCC[C@@H]2CN1C(=O)c1cc(C)n(-c2cccc(C(F)(F)F)c2)n1 [‘6439] | Emax [95% CI] | 95 [93 – 96] |
| COC(=O)[C@@H]1[C@@H]2CC[C@@H]2CN1C(=O)c1cc(C)n(-c2cccc(C(F)(F)F)c2)n1 [‘6448] | Emax [95% CI] | 87 [86 – 88] |
| Cc1cc(C(=O)N2CC3(CCC3)[C@H]2[C@H]2CCCO2)nn1-c1cccc(C(F)(F)F)c1 [‘1651] | Emax [95% CI] | 89 [84 – 94] |
| COC(=O)[C@@H]1[C@@H]2CCC[C@@H]2CN1C(=O)c1cc(C)n(-c2cccc(Cl)c2)n1 (racemic) [‘10010] | Emax [95% CI] | 74 [70 – 74] |
| Cc1cc(C(=O)N2CC3(CCC3)[C@H]2[C@@H]2CCCO2)nn1-c1cccc(C(F)(F)F)c1 [‘5490] | Emax [95% CI] | 98 [94 – 102] |

###

Each record here notes measured Gi1 hCB1.
- target_entity: hCB1 (Homo sapiens)
- assay_comment: bioSensAll ebBRET signaling profiling, hCB1
- Assay type: cell-based
- Parameters: host or cells: HEK293SL cells, transient PEI transfection
- measurement_context: Log [Compound] (M) -4.63927; single replicate values, FigS6a

| compound | Gi1 hCB1 |
| --- | --- |
| COC(=O)[C@@H]1[C@@H]2CCC[C@@H]2CN1C(=O)c1cc(C)n(-c2cccc(Cl)c2)n1 (racemic) [‘10010] | 67.922 |
| COC(=O)[C@@H]1[C@@H]2CC[C@@H]2CN1C(=O)c1cc(C)n(-c2cccc(C(F)(F)F)c2)n1 [‘6448] | 88.0098 |
| COc1cccc(C(NC(=O)c2cc(C)n(-c3cccc(C(F)(F)F)c3)n2)c2ccco2)c1 (centres unmarked) [‘1087] | -6.864 |
| Cn1nc(-c2nnc(C(C)(C)Oc3ccc(C(F)(F)F)cc3)o2)c2ccccc2c1=O [‘2153] | 62.7492 |
| Cc1cc(C(=O)NC(c2ccco2)c2ccco2)nn1-c1cccc(C(F)(F)F)c1 [‘1090] | 80.9336 |
| Cn1nc(-c2nnc(C(C)(C)Oc3ccc(Cl)cc3)o2)c2ccccc2c1=O [‘0450] | 13.3222 |
| Cc1cc(C(=O)N2CC3(CCC3)[C@@H]2[C@H]2CCCO2)nn1-c1cccc(C(F)(F)F)c1 (single isomer, unassigned) [compound 430] | -1.761 |
| COC(=O)C(NC(=O)c1cc(C)n(-c2cccc(C(F)(F)F)c2)n1)c1cccs1 (centres unmarked) [‘60154] | 95.1785 |

###

Each record here notes measured concentration at 5 min.
- assay_comment: Pharmacokinetics: plasma, brain, CSF
- measurement_context: male, CD-1, mouse, CSF, intraperitoneal, 0.2 mg/kg

| compound_smiles | output_unit | concentration at 5 min |
| --- | --- | --- |
| Cc1cc(C(=O)NC(C)(c2ccco2)c2ccco2)nn1-c1cccc(C(F)(F)F)c1 | ng/mL | 0 |
| COC(=O)[C@@](C)(NC(=O)c1cc(C)n(-c2cccc(C(F)(F)F)c2)n1)c1cccs1 | ng/mL | 1.2 |

FYI, the data here is from paper PMC11882969.
